Property: melting point; scope: individual compounds

Some solved cases for reference:
Compound	melting point
N#Cc1c(N2CCN(C(=O)C3CCCS3)CC2)c2ccccc2n(Cc2ccc(F)cc2)c1=O (stereo not given)	133 to 140 °C
C[C@H](N)C(c1ccccc1)c1ccccc1	76 to 77 °C
COC1(c2nc(Br)c(Sc3ccc(/C(C)=N/O)cc3)s2)CCOCC1	130 °C
COc1ccc(-c2c([N+](=O)[O-])cnc3ccc(Cl)cc23)c(OC)c1OC	114 to 116 °C

melting point measured on COc1ccc(Cl)c2c1[nH]c(=O)n1nc(CO)cc21 = 221 to 222 °C

====

Endpoint Label: melting point

Some solved cases for reference:
Compound	melting point
CCC(Cc1cccc(NC(C)=O)c1)C(=O)O (stereo unspecified)	131 to 132 °C
CC(C)OC(=O)c1ccc2c(c1)ncn2-c1cccc(-c2cccnc2Cl)c1	147 to 150 °C
CCOC(=O)CN(CCOc1cc2cc3c(Nc4cc(OC)c(Cl)cc4C)c(C#N)cnc3cc2cc1OCC)CC(=O)OCC	70 to 71 °C
CCCCCCCC(=O)NCCCCOS(C)(=O)=O	59 to 60 °C
O=C(O)CCCc1ccc(NS(=O)(=O)c2cccc(C(F)(F)F)c2)cn1	157 to 159 °C

Switching to the query record.
melting point measured on OCc1cc2ccccc2nc1I = 189 to 190 °C
